# Tested on: Rat fibroblasts (CREF)
# assay: Peg3 promoter luciferase inhibitors, potency, dose response, cell-based, HeLa, CREF/GAPDH counter-screen panel (AID 624167)
# experimental.parameters: CREF/GAPDH counter-screens, run 2, dose range 1, individual replicate IC50 per panel
Each record is given label 1 if its reported IC50 is strictly below 10 µM. Records at or above 10 µM are given label 0.

| molecule | subject.of.test | label.class |
| --- | --- | --- |
| CCn1nc(C)cc1-c1nnc(Sc2ncc([N+](=O)[O-])s2)n1C | Rat fibroblasts (CREF) | label 1 |

Input: Check if IC50 falls below 10 µM for Cc1cc(C(=O)CN2C(=O)c3ccccc3S2(=O)=O)c(C)n1CC1CCCO1 (stereo not given) .
Output: label 1

Input: Is IC50 of "Cc1cc(C)c(C)c(S(=O)(=O)N2CCN(C(=O)c3cc(=O)[nH]c4ccccc34)CC2)c1C" strictly below 10 µM?
Output: label 0

Input: Could you please tell me whether IC50 recorded for "CN[C@H]1C[C@H]2c3[nH]c4ccc(-c5ccc(OC)cc5)cc4c3CCN2C(=O)[C@H]1[C@H](C)O" is less than 10 µM?
Output: label 0

Input: Is the reported IC50 for "COc1cc(CNCCCN2CCOCC2)cc(Br)c1OCc1ccc(Cl)cc1" strictly below 10 µM?
Output: label 0

Input: Take the molecule "CS(=O)(=O)c1ccc(-c2cn3cc(C(=O)O)ccc3n2)cc1" and say whether its IC50 is less than 10 µM.
Output: label 0

Input: Hello, is IC50 of the following molecule strictly smaller than 10 µM? "CN(C)c1ccc(/C=C/c2ccc3c4ccccc4ccc3[n+]2-c2ccccc2)cc1"
Output: label 0

Input: Bench note: check whether "O=C(Nc1ccc(N2CCOCC2)cc1)c1cnsn1" shows IC50 below 10 µM
Output: label 1

Input: Decide: IC50 of "OCCNc1c2ccccc2nc2ccccc12" strictly below 10 µM?
Output: label 1

Input: Is IC50 strictly under 10 µM for the entry "COc1ccc(S(=O)(=O)/N=C2\C=C(Nc3ccc(O)cc3)C(=O)c3ccccc32)cc1" ?
Output: label 1
